biological target: Serine/threonine-protein kinase D1 (Homo sapiens, UniProt Q15139); assay: PKD1(PRD1LHY1) Takeda global kinase panel
Sequence (Q15139 whole entry): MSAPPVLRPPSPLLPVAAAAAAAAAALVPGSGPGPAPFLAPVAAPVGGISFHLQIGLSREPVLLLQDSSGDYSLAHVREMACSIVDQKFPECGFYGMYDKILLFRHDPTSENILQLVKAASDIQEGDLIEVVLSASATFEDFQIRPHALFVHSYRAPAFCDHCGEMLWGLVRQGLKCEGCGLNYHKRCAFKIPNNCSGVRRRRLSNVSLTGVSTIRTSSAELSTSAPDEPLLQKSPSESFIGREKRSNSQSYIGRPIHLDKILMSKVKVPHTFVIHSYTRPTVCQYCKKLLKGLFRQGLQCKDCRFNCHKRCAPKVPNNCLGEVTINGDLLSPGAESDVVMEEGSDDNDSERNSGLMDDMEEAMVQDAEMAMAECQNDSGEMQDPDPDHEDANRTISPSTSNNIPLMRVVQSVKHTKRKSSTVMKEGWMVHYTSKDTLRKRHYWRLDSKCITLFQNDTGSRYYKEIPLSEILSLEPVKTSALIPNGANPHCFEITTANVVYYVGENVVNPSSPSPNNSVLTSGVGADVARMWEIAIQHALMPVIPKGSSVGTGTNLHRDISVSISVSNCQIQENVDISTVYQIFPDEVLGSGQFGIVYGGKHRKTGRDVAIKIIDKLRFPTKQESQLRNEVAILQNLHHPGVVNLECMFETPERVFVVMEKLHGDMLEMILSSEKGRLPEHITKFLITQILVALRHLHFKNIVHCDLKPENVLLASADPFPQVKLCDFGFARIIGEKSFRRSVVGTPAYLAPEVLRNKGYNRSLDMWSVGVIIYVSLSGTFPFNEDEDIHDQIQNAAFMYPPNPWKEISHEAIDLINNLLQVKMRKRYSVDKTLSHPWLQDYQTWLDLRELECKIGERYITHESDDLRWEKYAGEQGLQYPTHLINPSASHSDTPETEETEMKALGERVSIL
RESULT_TYPE: pIC50
Scale: negative log10 of molar concentration, which is what pIC50 denotes.

Incoming: May I ask what pIC50 has been recorded for "CN1C(=O)[C@@H](N2CCc3c(nn(Cc4ccccc4)c3Br)C2=O)COc2ccccc21" ?
Outgoing: 6.00

* * *

biological target: Cyclin-dependent kinase 13 (Homo sapiens, UniProt Q14004); assay: CHED(CD13PHS1) Takeda global kinase panel
Sequence (Q14004 whole entry): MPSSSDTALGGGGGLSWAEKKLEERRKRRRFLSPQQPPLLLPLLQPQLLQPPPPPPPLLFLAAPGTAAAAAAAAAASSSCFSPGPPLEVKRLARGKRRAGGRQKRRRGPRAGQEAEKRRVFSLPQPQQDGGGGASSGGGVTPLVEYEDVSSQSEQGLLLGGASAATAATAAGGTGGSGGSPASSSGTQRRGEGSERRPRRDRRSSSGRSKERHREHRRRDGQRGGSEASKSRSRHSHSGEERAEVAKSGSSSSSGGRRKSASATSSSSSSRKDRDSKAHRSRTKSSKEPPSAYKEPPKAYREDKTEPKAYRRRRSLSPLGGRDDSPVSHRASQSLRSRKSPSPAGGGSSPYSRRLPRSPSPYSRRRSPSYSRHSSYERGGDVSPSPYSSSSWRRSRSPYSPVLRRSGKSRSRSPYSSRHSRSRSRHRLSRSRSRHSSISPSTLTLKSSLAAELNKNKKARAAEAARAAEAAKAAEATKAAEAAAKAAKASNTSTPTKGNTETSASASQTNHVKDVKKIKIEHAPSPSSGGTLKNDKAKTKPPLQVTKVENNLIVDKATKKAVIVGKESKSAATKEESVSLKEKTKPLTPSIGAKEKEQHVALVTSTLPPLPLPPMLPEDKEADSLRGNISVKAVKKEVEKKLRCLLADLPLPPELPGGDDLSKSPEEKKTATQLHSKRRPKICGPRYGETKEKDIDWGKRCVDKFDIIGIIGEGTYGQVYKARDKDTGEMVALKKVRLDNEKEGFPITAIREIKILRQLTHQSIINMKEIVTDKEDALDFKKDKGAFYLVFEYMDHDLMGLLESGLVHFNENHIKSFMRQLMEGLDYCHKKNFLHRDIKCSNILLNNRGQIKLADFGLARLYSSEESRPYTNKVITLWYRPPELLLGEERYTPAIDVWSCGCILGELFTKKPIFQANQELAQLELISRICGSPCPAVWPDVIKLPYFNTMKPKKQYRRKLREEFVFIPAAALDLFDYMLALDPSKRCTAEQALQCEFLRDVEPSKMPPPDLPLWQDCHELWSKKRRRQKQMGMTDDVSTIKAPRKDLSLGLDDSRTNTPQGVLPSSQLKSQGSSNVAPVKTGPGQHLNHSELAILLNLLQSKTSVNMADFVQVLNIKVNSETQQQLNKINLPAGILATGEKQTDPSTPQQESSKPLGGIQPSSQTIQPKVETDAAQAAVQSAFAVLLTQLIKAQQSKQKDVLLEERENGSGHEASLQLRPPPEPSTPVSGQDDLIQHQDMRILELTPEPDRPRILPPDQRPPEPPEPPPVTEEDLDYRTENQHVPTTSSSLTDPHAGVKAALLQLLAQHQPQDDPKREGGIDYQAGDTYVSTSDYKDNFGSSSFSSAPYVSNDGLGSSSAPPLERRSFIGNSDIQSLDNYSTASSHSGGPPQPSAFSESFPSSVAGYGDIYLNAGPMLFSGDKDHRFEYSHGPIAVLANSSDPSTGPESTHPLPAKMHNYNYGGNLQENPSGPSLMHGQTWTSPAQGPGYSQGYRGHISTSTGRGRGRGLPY
RESULT_TYPE: IC50 (nM)
Value expressed in nM; do not type the unit.

Incoming: May I ask what IC50 has been recorded for CN1C(=O)[C@@H](N2CCc3c(nn(Cc4ccccc4)c3Br)C2=O)COc2ccccc21 [TP-030-2] ?
Outgoing: 1000

* * *

Target chain: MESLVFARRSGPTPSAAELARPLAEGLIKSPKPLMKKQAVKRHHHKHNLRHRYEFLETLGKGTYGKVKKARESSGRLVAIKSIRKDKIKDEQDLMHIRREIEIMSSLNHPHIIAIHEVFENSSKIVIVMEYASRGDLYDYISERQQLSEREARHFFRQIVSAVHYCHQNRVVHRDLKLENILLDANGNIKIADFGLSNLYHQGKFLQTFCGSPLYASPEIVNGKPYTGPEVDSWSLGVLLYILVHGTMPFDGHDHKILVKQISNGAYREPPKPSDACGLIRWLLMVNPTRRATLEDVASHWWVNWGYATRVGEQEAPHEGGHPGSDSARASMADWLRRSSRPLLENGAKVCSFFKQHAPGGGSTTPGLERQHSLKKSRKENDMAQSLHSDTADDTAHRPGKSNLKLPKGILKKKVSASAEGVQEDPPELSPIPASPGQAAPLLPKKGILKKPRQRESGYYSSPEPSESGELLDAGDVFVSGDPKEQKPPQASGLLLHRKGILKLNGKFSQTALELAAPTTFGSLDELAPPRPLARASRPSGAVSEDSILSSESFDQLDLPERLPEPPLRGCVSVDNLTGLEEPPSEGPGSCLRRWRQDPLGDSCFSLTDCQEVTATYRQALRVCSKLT
RESULT_TYPE: pIC50
Scale: negative log10 of molar concentration, which is what pIC50 denotes.

Incoming: May I ask what pIC50 has been recorded for "CN1C(=O)[C@@H](N2CCc3c(nn(Cc4ccccc4)c3Br)C2=O)COc2ccccc21" ?
Outgoing: 6.00

* * *

biological target: Tyrosine-protein kinase Lck (Homo sapiens)
Sequence (P06239 whole entry): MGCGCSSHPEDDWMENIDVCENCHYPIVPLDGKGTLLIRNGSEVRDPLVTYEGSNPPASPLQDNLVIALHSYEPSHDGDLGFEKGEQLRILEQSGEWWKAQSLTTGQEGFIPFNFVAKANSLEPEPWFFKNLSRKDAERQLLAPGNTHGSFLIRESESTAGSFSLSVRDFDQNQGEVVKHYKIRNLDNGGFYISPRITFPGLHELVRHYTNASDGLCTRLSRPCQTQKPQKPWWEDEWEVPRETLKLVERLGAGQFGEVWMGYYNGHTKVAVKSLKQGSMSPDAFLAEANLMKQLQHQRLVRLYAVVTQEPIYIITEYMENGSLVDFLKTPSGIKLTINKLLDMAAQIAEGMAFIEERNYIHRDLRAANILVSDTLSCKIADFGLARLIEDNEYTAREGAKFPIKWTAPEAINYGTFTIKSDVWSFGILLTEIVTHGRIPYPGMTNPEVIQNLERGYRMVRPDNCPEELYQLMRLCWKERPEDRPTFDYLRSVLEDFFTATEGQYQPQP
RESULT_TYPE: IC50 (µM)
Value expressed in µM; do not type the unit.

Incoming: // lookup IC50 | system=Tyrosine-protein kinase Lck (Homo sapiens) | key= "CN1C(=O)[C@@H](N2CCc3c(nn(Cc4ccccc4)c3Br)C2=O)COc2ccccc21"
Outgoing: 1

* * *

biological target: Casein kinase I isoform epsilon (Homo sapiens, UniProt P49674); assay: CK1epsilon(CS1ELGI5) Takeda global kinase panel
Sequence (P49674 whole entry, canonical isoform): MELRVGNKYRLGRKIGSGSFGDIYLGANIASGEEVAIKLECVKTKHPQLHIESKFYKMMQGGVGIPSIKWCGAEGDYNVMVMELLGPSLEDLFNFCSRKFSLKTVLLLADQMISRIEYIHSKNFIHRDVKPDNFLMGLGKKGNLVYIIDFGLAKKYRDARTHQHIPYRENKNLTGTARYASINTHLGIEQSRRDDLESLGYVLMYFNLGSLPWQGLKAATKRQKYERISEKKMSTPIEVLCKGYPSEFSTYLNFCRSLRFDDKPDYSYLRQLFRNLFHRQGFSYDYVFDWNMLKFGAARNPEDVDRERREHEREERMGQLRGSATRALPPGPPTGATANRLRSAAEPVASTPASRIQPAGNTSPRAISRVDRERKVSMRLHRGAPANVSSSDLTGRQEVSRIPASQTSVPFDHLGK
RESULT_TYPE: pIC50
Scale: negative log10 of molar concentration, which is what pIC50 denotes.

Incoming: May I ask what pIC50 has been recorded for "CN1C(=O)[C@@H](N2CCc3c(nn(Cc4ccccc4)c3Br)C2=O)COc2ccccc21" ?
Outgoing: 6.00

* * *

target: NT-3 growth factor receptor (Homo sapiens)
Sequence (Q16288 whole entry): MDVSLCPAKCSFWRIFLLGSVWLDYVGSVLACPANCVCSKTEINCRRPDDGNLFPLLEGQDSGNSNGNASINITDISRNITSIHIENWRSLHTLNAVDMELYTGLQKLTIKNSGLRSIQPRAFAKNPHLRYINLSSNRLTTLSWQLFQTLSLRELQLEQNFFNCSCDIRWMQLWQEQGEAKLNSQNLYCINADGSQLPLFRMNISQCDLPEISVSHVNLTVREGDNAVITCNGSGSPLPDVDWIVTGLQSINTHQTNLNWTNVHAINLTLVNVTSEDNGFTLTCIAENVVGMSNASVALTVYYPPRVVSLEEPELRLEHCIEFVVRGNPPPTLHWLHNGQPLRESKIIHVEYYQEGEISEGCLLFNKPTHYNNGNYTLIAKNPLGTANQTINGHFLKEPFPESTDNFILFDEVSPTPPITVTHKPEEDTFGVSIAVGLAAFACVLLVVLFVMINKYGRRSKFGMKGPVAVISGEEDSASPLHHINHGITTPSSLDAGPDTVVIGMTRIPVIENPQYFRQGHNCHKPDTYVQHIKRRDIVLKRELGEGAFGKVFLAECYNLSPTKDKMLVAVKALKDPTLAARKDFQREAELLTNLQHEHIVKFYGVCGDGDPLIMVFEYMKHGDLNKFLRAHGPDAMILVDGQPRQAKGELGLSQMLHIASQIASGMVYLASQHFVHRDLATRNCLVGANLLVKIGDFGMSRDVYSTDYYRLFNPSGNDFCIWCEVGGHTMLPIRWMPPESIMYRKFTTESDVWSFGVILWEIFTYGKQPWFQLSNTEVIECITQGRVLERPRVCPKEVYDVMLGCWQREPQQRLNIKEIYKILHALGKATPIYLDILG
RESULT_TYPE: IC50
Reply with the number, then its unit.

Incoming: May I ask what IC50 has been recorded for "CN1C(=O)[C@@H](N2CCc3c(nn(Cc4ccccc4)c3Br)C2=O)COc2ccccc21" ?
Outgoing: 1000 nM
